# Test system: H1975 lung cancer cell line
# METHOD: CellTiter Glo viability assay, drugs alone or combined with CBD
# Format: cell-based
# RECORDED_CONDITIONS: Homo sapiens, NCI-H1975, read-out: IC50 of CBD alone (FIG. 2 legend)
ENDPOINT: pIC50
Please note pIC50 is a logarithmic value: minus log10 of concentration in mol/L. Answer with that number alone.

Ask: // query pIC50 value for entry C=C(C)[C@@H]1CCC(C)=C[C@H]1c1c(O)cc(CCCCC)cc1O
Reply: 4.68

----------
# Test system: H1975 lung cancer cell line
# METHOD: CellTiter Glo viability assay, drugs alone or combined with CBD
# Assay type: cell-based
# RECORDED_CONDITIONS: Homo sapiens, NCI-H1975, 48 h, read-out: IC50 (μM), cell viability reduction
ENDPOINT: IC50 (µM)
// note: answer is a bare numeric in µM

Ask: Quick one: IC50 for C=C(C)[C@@H]1CCC(C)=C[C@H]1c1c(O)cc(CCCCC)cc1O [CBD, Cannabidiol] ?
Reply: 19.5
